tested on: O2−. generated by xanthine plus xanthine oxidase; test: Inhibition of O2−. generated by xanthine-xanthine oxidase in vitro (SOD mimetic activity, lucigenin chemiluminescence); assay type: biochemical; conditions: tested in PBS at 10^−4 M
Observable: O2−. generated by a xanthine-xanthine oxidase reaction extinguished

Asked: For CC1(C)CC(N)CC(C)(C)N1[O] , what is its reported O2−. generated by a xanthine-xanthine oxidase reaction extinguished?
Given back: 88%

Query compound follows.
Asked: For CC1(C)CC(O)CC(C)(C)N1[O] , what is its reported O2−. generated by a xanthine-xanthine oxidase reaction extinguished?
Given back: 92%

====

# maps each entry to its Maximum inhibition, %
System: O2−. generated by xanthine plus xanthine oxidase
Test: Inhibition of O2−. generated by xanthine-xanthine oxidase in vitro (SOD mimetic activity, lucigenin chemiluminescence)
Type: biochemical
Settings: O2−. generated by xanthine-xanthine oxidase in vitro; means ± SE, 5 studies
Procedure: The SOD activities of Ns were evaluated in vitro for their efficacy in dampening O2^−. generated by xanthine (25 μmol/l) plus xanthine oxidase (9 IU/ml). Their lipid solubility was assessed by shaking the Ns in a 50:50 mixture of PBS (Ambion, Austin, Tex.) and chloroform (CHCl3; EM Science, Gibbstown, N.J.), taking an aliquot of the PBS phase, evaporating the CHCl3phase to dryness, reconstituting it in PBS, and assessing the SOD activities in the two solutions. […]
Write down the numeric answer in % and omit the unit.

Field: example entries. Status: answers known.
Asked: For CC1(C)CC(C(=O)O)C(C)(C)N1[O] (stereo not drawn) , what is its reported Maximum inhibition, %?
Given back: 15

Asked: For CC1(C)CC(N)CC(C)(C)N1[O] , what is its reported Maximum inhibition, %?
Given back: 88

Asked: For CC1(C)CC(=O)CC(C)(C)N1[O] , what is its reported Maximum inhibition, %?
Given back: 62

Asked: For CC1(C)CC(O)CC(C)(C)N1[O] , what is its reported Maximum inhibition, %?
Given back: 92

Asked: For CC1(C)CC(C(N)=O)C(C)(C)N1[O] (stereo not drawn) , what is its reported Maximum inhibition, %?
Given back: 82

Query molecule follows.
Asked: For CC1(C)CC([N+](C)(C)C)CC(C)(C)N1[O].[I-] , what is its reported Maximum inhibition, %?
Given back: 42
